- Tested on: RXF 393
- MEASUREMENT DESCRIPTION: NCI tumour cell line growth inhibition, 48 h
Activity calls are given as the source filed them. Cut-off read from the data, not from the text of the source: active = GI50 up to about 1.1 µM and inactive = higher.
Outcome codes: 1 = active, -1 = inactive

INSERT INTO measurements (molecule, category) VALUES
  ('COc1cc(C(C#N)NNC(=O)Cc2ccccc2)cc(OC)c1OC (configuration not stated)', -1),
  ('O=c1[nH]c2nccnc2c2c([N+](=O)[O-])cccc12', -1),
  ('COc1cc(/C=C/C(=O)N[C@@H]2C(=O)N3[C@@H]2SC(C)(C)[C@@H]3C(=O)O)cc(OC)c1OC', -1),
  ('Cc1ccc(C(CCO)CCO)nc1', -1),
  ('CCCn1c(CN(Cc2nc3ccccc3n2CCC)Cc2nc3ccccc3n2CCC)nc2ccccc21', 1),
  ('CC/C(CC(=O)CCC(=O)Nc1ccccc1[N+](=O)[O-])=N/NC(=O)C[n+]1ccccc1', -1),
  ('O=S1(=O)CCN(Cc2ccccn2)CC1', -1),
  ('CN(Cc1ccccc1)C1(N(C)Cc2ccccc2)CC1', -1),
  ('COc1ccc(N2C(=O)C3c4[nH]c5ccccc5c4C4CC(C)(C)CC(C)(C)C4C3C2=O)cc1 (configuration not stated)', -1),
  ('Cc1ccc(/C=C2\CN(C)CC3=C2N=C(S)NC3c2ccc(C)cc2)cc1 (configuration not stated)', -1),
  ('CC(C)(C)OC(=O)NC(Cc1ccc(OCc2ccccc2)cn1)C(=O)N1CCCCC1 (configuration not stated)', -1),
  ('CC1(C)OC(=S)N(c2ccccc2)C12C=Cc1ccccc1O2 (configuration not stated)', -1),
  ('Cn1c2cc(Cl)ccc2c2ccc3c(c21)C(=O)C=CC3=O', -1),
  ('O=C1CCCc2ccc3c(c21)CC1(Cc2cc4c(cc2C1)CCCC4)C3', -1),
  ('Clc1ccc2[nH]c(CCSCCc3nc4ccc(Cl)cc4[nH]3)nc2c1', -1),
  ('COc1cc(Nc2nc3ccccc3nc2-c2cccs2)cc(OC)c1OC', -1),
  ('CC1=C2C(=O)c3ccccc3C(=O)[C@H]2[C@H]2CCO[C@H]2O1', -1),
  ('CN(C)CCCCN1c2ccccc2Sc2cc(N=[N+]=[N-])ccc21', -1),
  ('NC(Cc1cc(I)c(Oc2ccc(O)c(I)c2)c(I)c1)C(=O)O (configuration not stated)', -1),
  ('COC(=O)c1c(O)ccc2c1c1c(n2-c2ccc(OC)cc2)C(=O)c2ccccc2C1=O', -1),
  ('C=CCCON(C(=O)OC(C)(C)C)C(C)(C)C', -1),
  ('C=C(C)C1CC2(C)C(C)CC(O)CC2C(OC(=O)C=C(C)C)C1O (configuration not stated)', -1);

====

Each entry below carries its recorded GI50.
- System: EKVX
- MEASUREMENT DESCRIPTION: NCI tumour cell line growth inhibition, 48 h
The source made the active and inactive calls. No stated cut-off is given here; in the data, active = GI50 up to about 1.1 µM and inactive = higher.
READOUT NAME: GI50

INSERT INTO assay_data (compound, meas_value) VALUES
  ('Cc1ccc(NC(=O)CC/C(CC(=O)c2ccc(F)cc2)=N\NC(=O)C(=O)NN)cc1C', '> 100 µM (inactive)'),
  ('CCOC(=O)c1c(N2CCN(C)CC2)[nH]c(=O)c(C(c2c(Cl)cccc2Cl)c2c(O)c(C(=O)OCC)c(N3CCN(C)CC3)[nH]c2=O)c1O', '14.5 µM (inactive)'),
  ('Cc1c2ccnc(C(F)(F)F)c2cc2c1[nH]c1ccccc12', '> 125 µM (inactive)'),
  ('Nc1nc(Cl)cc(NCC2(CO)CC(Cc3ccccc3)C2)n1 (stereo not given)', '3.35 µM (inactive)'),
  ('COc1cc(Nc2c3ccccc3nc3ccccc23)ccc1NS(C)(=O)=O', '10 µM (inactive)');

====

- Test system: CCRF-CEM
- MEASUREMENT DESCRIPTION: NCI tumour cell line growth inhibition, 48 h
Activity calls are given as the source filed them. Cut-off read from the data, not from the text of the source: active = GI50 up to about 1.1 µM and inactive = higher.
Outcome codes: True for active, False for inactive

INSERT INTO measurements (molecule, target_or_test_system, category) VALUES
  ('[N-]=[N+]=NC1=CC(=O)c2cccc3cccc1c23', 'CCRF-CEM', 'False'),
  ('COc1c(O)ccc2c1CN1CCc3cc4c(cc3C1C2)OCO4 (stereo unspecified)', 'CCRF-CEM', 'False'),
  ('O=C(O)C(=O)Cc1ccc2c(c1)OCO2', 'CCRF-CEM', 'False'),
  ('N#CCCN(c1ccc(/C=N/c2ccc(C(=O)O)cc2)cc1)S(=O)(=O)c1ccccc1', 'CCRF-CEM', 'False'),
  ('COc1cc2ncnc(NS(=O)(=O)c3cc4ccccc4s3)c2cc1OC', 'CCRF-CEM', 'False'),
  ('COc1cc(Nc2nc3ccccc3nc2-c2cccs2)cc(OC)c1OC', 'CCRF-CEM', 'False'),
  ('CNc1nc(SC)nc2c1c(N)nn2C', 'CCRF-CEM', 'False'),
  ('CC(=O)O[C@H]1C(=O)[C@@]2(C)[C@H]([C@H](OC(=O)c3cccc([N+](=O)[O-])c3)[C@]3(O)C[C@H](OC(=O)[C@H](O)[C@@H](NC(=O)c4ccccc4)c4ccccc4)C(C)=C1C3(C)C)[C@]1(OC(C)=O)CO[C@@H]1C[C@@H]2O', 'CCRF-CEM', 'True'),
  ('Cc1cc(O)nc(NNC(C#N)c2cccc([N+](=O)[O-])c2)n1 (stereo unspecified)', 'CCRF-CEM', 'False'),
  ('COC(=O)C12OC(C)(C(CC(=O)OC(C)(C)C)C1=O)C1C(=O)N(c3ccccc3)C(=O)C12 (stereo unspecified)', 'CCRF-CEM', 'False'),
  ('O=[N+]([O-])c1ccc(Sc2c3ccccc3nc3ccccc23)nc1', 'CCRF-CEM', 'False'),
  ('COc1ccc(C2c3cc4c(cc3OC(N3CCCCC3)C2C)OCO4)cc1 (stereo unspecified)', 'CCRF-CEM', 'False'),
  ('N=c1oc2c(Cl)cc(Cl)cc2cc1C(=O)Nc1ccccn1', 'CCRF-CEM', 'False'),
  ('O=C(CN1CCCCC1)CC(O)(C(F)(F)F)C(F)(F)F', 'CCRF-CEM', 'False'),
  ('CC1(C)C2CC(O)C1CCC2=O (stereo unspecified)', 'CCRF-CEM', 'False'),
  ('CCOC1CCC2C(CCC(/C=C/c3ccc(O)c4ncccc34)N2C)C1 (stereo unspecified)', 'CCRF-CEM', 'False'),
  ('COc1cc2oc(=O)cc(C)c2cc1O', 'CCRF-CEM', 'False'),
  ('O=C1CN(c2ccc(Cl)cc2)C(=O)CN1NCNN1CC(=O)N(c2ccc(Cl)cc2)CC1=O', 'CCRF-CEM', 'False'),
  ('O=C1CCC2(c3ccccc3)OCC([C@@H](O)c3ccccc3)N12 (stereo partly specified)', 'CCRF-CEM', 'False'),
  ('COc1ccc(-c2c3c(cc4cc5c(cc24)OCO5)C(=O)OC3)cc1OC', 'CCRF-CEM', 'False'),
  ('NC(=S)N/N=C/c1nccc2ccccc12', 'CCRF-CEM', 'True');

====

- Test system: CAKI-1
- MEASUREMENT DESCRIPTION: NCI tumour cell line growth inhibition, 48 h
Activity calls are given as the source filed them. Cut-off read from the data, not from the text of the source: active = GI50 up to about 1.1 µM and inactive = higher.
READOUT NAME: GI50

INSERT INTO measurements (compound, meas_value) VALUES
  ('NC1C=NNC1=O (stereo unspecified)', '> 100 µM (inactive)'),
  ('[N-]=[N+]=NC1=CC(=O)c2cccc3cccc1c23', '22.2 µM (inactive)'),
  ('CSC(=S)Nc1cccc(C)n1', '> 100 µM (inactive)'),
  ('COc1cc2c(c(O)c1C)C(=O)CC(c1ccccc1)O2 (stereo unspecified)', '94.8 µM (inactive)'),
  ('Cc1cc(N2CCN(C)CC2)n2nc(-c3ccc(Cl)cc3)nc2n1', '> 100 µM (inactive)'),
  ('CC1(C)CCCC2(C)[C@@H]1CC[C@]13C[C@](C)(CC[C@@H]21)[C@@H]3CO (stereo partly specified)', '> 100 µM (inactive)'),
  ('C#C[C@@H](CCCC)OC(=O)N[C@H](C)c1ccccc1', '42.9 µM (inactive)'),
  ('Cc1cc(-c2ccc(C(=O)C(c3ccccc3)(c3ccccc3)c3ccccc3)[nH]2)on1', '33.1 µM (inactive)'),
  ('CC(=O)Oc1cc(OC(C)=O)c(OC(C)=O)c2c1CC1C(=O)C3(CCc4ccccc43)C(=O)C1C2 (stereo unspecified)', '20.2 µM (inactive)'),
  ('C/C(=C(/C)c1cc[n+](C)cc1)c1cc[n+](C)cc1', '> 75 µM (inactive)'),
  ('CC(NC(=O)Cc1ccccc1)NC(=O)C(C)C(=O)Nc1ccccc1 (stereo unspecified)', '66.5 µM (inactive)');
